observation-type: glass transition temperature (°C)

Kindly note the recorded glass transition temperature for *Oc1cccc2ccc(Oc3ccc(NC(=O)c4ccc(Oc5ccc(S(=O)(=O)c6ccc(Oc7ccc(C(=O)Nc8ccc(*)cc8)cc7)cc6)cc5)cc4)cc3)cc12 (repeat unit) , which is 218.00

Kindly note the recorded glass transition temperature for *Oc1cc(OC(=O)c2ccc(OCCC)cc2)c(OC(=O)CCCC(*)=O)cc1OC(=O)c1ccc(OCCC)cc1 (repeat unit) , which is 72.00

Kindly note the recorded glass transition temperature for *C(=O)Nc1ccc(Oc2ccc(N3C(=O)c4ccc(*)cc4C3=O)cc2)cc1 (repeat unit) , which is 295.00

Kindly note the recorded glass transition temperature for *c1ccc(-c2ccc(N3C(=O)c4ccc(Oc5ccc(Oc6ccc7c(c6)C(=O)N(*)C7=O)cc5)cc4C3=O)cc2)cc1 (repeat unit) , which is 266.00

Kindly note the recorded glass transition temperature for *c1ccc2c(c1)C(=O)N(c1cc(OCCCCCCCC)cc(N3C(=O)c4ccc(C(*)(C(F)(F)F)C(F)(F)F)cc4C3=O)c1)C2=O (repeat unit) , which is 195.00

(I) *CC(*)(C)C(=O)OCc1ccc2c(c1)OCCOCCOCCOCCO2 (repeat unit)
(II) *CC(*)(C)C(=O)OCCCC1CCCCC1 (repeat unit)
(III) *c1cccc(S(=O)(=O)c2cccc(N3C(=O)c4ccc(Oc5ccc(S(=O)(=O)c6ccc(Oc7ccc8c(c7)C(=O)N(*)C8=O)cc6)cc5)cc4C3=O)c2)c1 (repeat unit)
Rank entries according to their glass transition temperature, from the largest number down. Reply: labels, ordered per the request. III, II, I
(III: 205.00 °C, II: 60.00 °C, I: 38.00 °C)

----------
observation-type: glass transition temperature (°C)

Kindly note the recorded glass transition temperature for *CC(*)(C)C(=O)OCCO (repeat unit) [Poly(2-hydroxyethyl methacrylate)] , which is 84.03

Kindly note the recorded glass transition temperature for *C[Si](C)(C)[Si](C)(C)[Si](C)(C)[Si](*)(C)C (repeat unit) , which is -68.00

Kindly note the recorded glass transition temperature for *CC(*)c1ccc(C(C)(O)CCCCC)cc1 (repeat unit) , which is 100.00

Kindly note the recorded glass transition temperature for *c1ccc(N(c2ccc(C#N)cc2)c2ccc(N3C(=O)c4ccc(Oc5ccc(C6(c7ccc(Oc8ccc9c(c8)C(=O)N(*)C9=O)cc7)c7ccccc7-c7ccccc76)cc5)cc4C3=O)cc2)cc1 (repeat unit) , which is 279.00

(a) *CCCCCCCCc1nc2cc(NC(=O)CCCCC(=O)Nc3ccc4oc(*)nc4c3)ccc2o1 (repeat unit)
(b) *c1ccc2c(c1)C(=O)N(c1ccc(OCCOCCOCCOCCOc3ccc(N4C(=O)c5ccc(C(*)(C(F)(F)F)C(F)(F)F)cc5C4=O)cc3)cc1)C2=O (repeat unit)
(c) *CC(*)(C)C(=O)OCC[N+](C)(C)CCCCS(=O)(=O)O (repeat unit)
Rank entries according to their glass transition temperature, from the largest number down. Reply: labels, ordered per the request. c, b, a

----------
observation-type: glass transition temperature (°C)

Consider the worked cases shown below.
Kindly note the recorded glass transition temperature for *CC(C)C(*)(C)C (repeat unit) , which is 37.00

Kindly note the recorded glass transition temperature for *CC#CC#CCOc1ccc(C(=O)OCCN(CCOC(=O)c2ccc(O*)cc2)c2ccc([N+](=O)[O-])cc2)cc1 (repeat unit) , which is 100.00

(a) *CC(*)(C)C(=O)OCCCCCCc1ccc(/C(C)=C/c2ccc(OC)cc2)cc1 (repeat unit)
(b) *OCCOC(=O)CCCC(=O)OCCOc1nc(-c2ccc(OCCCC)cc2)nc(*)c1-c1ccc(OC)cc1 (repeat unit)
(c) *Oc1ccc(CC(NC(=O)CCc2ccc(OC(=O)COCC(*)=O)cc2)C(=O)OCC)cc1 (repeat unit)
Your job: order these 3 records by glass transition temperature, ascending. Reply: labels, ordered per the request. a, b, c
(a: 31.00 °C, b: 46.00 °C, c: 79.00 °C)

----------
observation-type: glass transition temperature (°C)

Consider the worked cases shown below.
Kindly note the recorded glass transition temperature for *Oc1cc(C(C)(C)C)c(Oc2ccc(C(=O)Nc3ccc(C(c4ccc(NC(=O)c5ccc(*)cc5)cc4)(C(F)(F)F)C(F)(F)F)cc3)cc2)cc1C(C)(C)C (repeat unit) , which is 268.00

Kindly note the recorded glass transition temperature for *c1ccc2c(c1)C(=O)N(c1ccc(S(=O)(=O)c3ccc(N4C(=O)c5ccc(C(*)(C(F)(F)F)C(F)(F)F)cc5C4=O)cc3)cc1)C2=O (repeat unit) , which is 336.50

Kindly note the recorded glass transition temperature for *CCCCCCOc1ccc(OC(=O)c2ccc(C(=O)Oc3ccc(O*)cc3)cc2)cc1 (repeat unit) , which is 53.00

Kindly note the recorded glass transition temperature for */C=C/c1sc(-c2ccc(-c3ccc(-c4ccc(-c5sc(/C=C/C6=CC(=C(C#N)C#N)C=C(*)O6)c(CCCCCC)c5CCCCCC)s4)s3)s2)c(CCCCCC)c1CCCCCC (repeat unit) , which is 134.00

Kindly note the recorded glass transition temperature for *c1ccc(Oc2cccc(N3C(=O)c4ccc(-c5ccc6c(c5)C(=O)N(*)C6=O)cc4C3=O)c2)cc1 (repeat unit) , which is 259.00

(P) *c1ccc(CCc2ccc(N3C(=O)C(=O)N(c4ccc(CCc5ccccc5N5C(=O)C(=O)N(*)C5=O)cc4)C3=O)cc2)cc1 (repeat unit)
(Q) *c1ccc(C(C#N)(C(=O)O)C(*)(C#N)C(=O)O)cc1 (repeat unit)
glass transition temperature comparison. Which is larger, P or Q ? Returns: label corresponding to the selected item. P

----------
observation-type: glass transition temperature (°C)

Consider the worked cases shown below.
Kindly note the recorded glass transition temperature for *C(=O)Nc1ccc(Oc2ccc(S(=O)(=O)c3ccc(Oc4ccc(NC(=O)c5ccc6c(c5)C(=O)N(c5ccc(Oc7ccc(C8(c9ccc(Oc%10ccc(N%11C(=O)c%12ccc(*)cc%12C%11=O)cc%10)cc9)NC(=O)c9ccccc98)cc7)cc5)C6=O)cc4)cc3)cc2)cc1 (repeat unit) , which is 302.00

Kindly note the recorded glass transition temperature for *c1cc(/C=N/C(=S)Nc2ccc(-n3c(=O)c4cc5c(=O)n(*)c(=O)c5cc4c3=O)cc2)ccc1Cl (repeat unit) , which is 276.00

Kindly note the recorded glass transition temperature for *Oc1ccc(-c2ccc(Oc3ccc4ccccc4c3-c3c(*)ccc4ccccc34)c3ccccc23)c2ccccc12 (repeat unit) , which is 301.00

Kindly note the recorded glass transition temperature for *Oc1ccc(C(c2ccccc2)(c2ccccc2)c2ccc(OC(*)=O)cc2)cc1 (repeat unit) , which is 213.00

(a) *CCCC(=O)Nc1ccc(Cc2ccc(NC(=O)CCCN3C(=O)c4ccc(C(=O)c5ccc6c(c5)C(=O)N(*)C6=O)cc4C3=O)cc2)cc1 (repeat unit)
(b) *c1ccc(-c2ccc(-c3ccc(-c4cc(-c5ccccc5)c5cc(Oc6ccc7nc(*)cc(-c8ccccc8)c7c6)ccc5n4)cc3)cc2)cc1 (repeat unit)
(c) *CC(*)(C)C(=O)NC(=O)OCCOc1c(Br)cc(S(=O)(=O)c2cc(Br)c(OCCO)c(Br)c2)cc1Br (repeat unit)
(d) *Oc1ccc(CC(NC(=O)CCc2ccc(OC(=O)CCCCC(*)=O)cc2)C(=O)OC(C)CC)cc1 (repeat unit)
Rank entries according to their glass transition temperature, from the largest number down. Reply: labels, ordered per the request. b, a, c, d
(b: 300.00 °C, a: 195.00 °C, c: 110.00 °C, d: 50.00 °C)

----------
observation-type: glass transition temperature (°C)

Consider the worked cases shown below.
Kindly note the recorded glass transition temperature for *c1cccc(Cc2cccc(N3C(=O)c4ccc([Si](C)(C)c5ccc([Si](C)(C)c6ccc7c(c6)C(=O)N(*)C7=O)cc5)cc4C3=O)c2)c1 (repeat unit) , which is 246.00

Kindly note the recorded glass transition temperature for *CCN(CCOC(=O)CCCCC(=O)O*)c1ccc(/C=N/N(c2ccccc2)c2ccccc2)cc1 (repeat unit) , which is 54.00

Kindly note the recorded glass transition temperature for *CC(*)(C)C(=O)OCCCCCCOc1ccc(C(=O)Oc2ccc(C(=O)/C=C/c3c(C)c4ccccc4n3CCCC)cc2)cc1 (repeat unit) , which is 85.00

(A) *c1ccc(Oc2ccc(-c3cc(-c4ccccc4)c4cc(-c5ccc6nc(*)cc(-c7ccccc7)c6c5)ccc4n3)cc2)cc1 (repeat unit)
(B) *Oc1ccc(S(=O)(=O)c2ccc(Oc3ccc(C(C)(CCC(=O)O)c4ccc(*)cc4)cc3)cc2)cc1 (repeat unit)
Form: Entry with minimum glass transition temperature (choose one): A / B Returns: label corresponding to the selected item. B

(I) *c1cc(Br)c(Oc2c(Br)cc(N3C(=O)c4ccc(Oc5ccc6c(c5)C(=O)N(*)C6=O)cc4C3=O)cc2Br)c(Br)c1 (repeat unit)
(II) *Oc1ccc(/C(=N/c2ccc(/N=C(\c3ccccc3)c3ccc(Oc4ccc(C(c5ccccc5)(c5ccccc5)c5ccc(*)cc5)cc4)cc3)cc2)c2ccccc2)cc1 (repeat unit)
(III) *CC(C)(CO*)COCCCCCCCCCCOc1ccc(-c2ccc(C#N)cc2)cc1 (repeat unit)
(IV) *CCCCCCOC(=O)C(C(=O)OCCCCCCOc1ccc(-n2on2-c2ccc(O*)cc2)cc1)c1ccccc1 (repeat unit)
Your job: order these 4 records by glass transition temperature, ascending. Reply: labels, ordered per the request. III, IV, II, I

(A) *c1ccc(Oc2ccc(-c3ccc(-c4ccc(-c5ccc(Oc6ccc(-c7c8c(c(*)c9ccccc79)C(=O)N(c7ccccc7)C8=O)cc6)c(C(F)(F)F)c5)cc4)cc3)cc2C(F)(F)F)cc1 (repeat unit)
(B) *Oc1ccc(NC(=O)c2ccc(Oc3ccc(C(C)(C)c4ccc(C(C)(C)c5ccc(Oc6ccc(C(=O)Nc7ccc(Oc8ccc(C(c9ccc(*)cc9)(C(F)(F)F)C(F)(F)F)cc8)cc7)cc6)cc5)cc4)cc3)cc2)cc1 (repeat unit)
(C) *CC(*)(C)C(=O)OCCCCCCOc1ccc(C(=O)Oc2ccc(OC)cc2)cc1OC (repeat unit)
(D) *CCOC(=O)CCCCCCC(=O)OCCOC(=O)c1ccc(C(=O)O*)cc1 (repeat unit)
Rank entries according to their glass transition temperature, from the largest number down. Reply: labels, ordered per the request. A, B, C, D
